# system.under.test: PIKFYVE (Homo sapiens, UniProt Q9Y2I7)
# Sequence (Q9Y2I7 whole entry): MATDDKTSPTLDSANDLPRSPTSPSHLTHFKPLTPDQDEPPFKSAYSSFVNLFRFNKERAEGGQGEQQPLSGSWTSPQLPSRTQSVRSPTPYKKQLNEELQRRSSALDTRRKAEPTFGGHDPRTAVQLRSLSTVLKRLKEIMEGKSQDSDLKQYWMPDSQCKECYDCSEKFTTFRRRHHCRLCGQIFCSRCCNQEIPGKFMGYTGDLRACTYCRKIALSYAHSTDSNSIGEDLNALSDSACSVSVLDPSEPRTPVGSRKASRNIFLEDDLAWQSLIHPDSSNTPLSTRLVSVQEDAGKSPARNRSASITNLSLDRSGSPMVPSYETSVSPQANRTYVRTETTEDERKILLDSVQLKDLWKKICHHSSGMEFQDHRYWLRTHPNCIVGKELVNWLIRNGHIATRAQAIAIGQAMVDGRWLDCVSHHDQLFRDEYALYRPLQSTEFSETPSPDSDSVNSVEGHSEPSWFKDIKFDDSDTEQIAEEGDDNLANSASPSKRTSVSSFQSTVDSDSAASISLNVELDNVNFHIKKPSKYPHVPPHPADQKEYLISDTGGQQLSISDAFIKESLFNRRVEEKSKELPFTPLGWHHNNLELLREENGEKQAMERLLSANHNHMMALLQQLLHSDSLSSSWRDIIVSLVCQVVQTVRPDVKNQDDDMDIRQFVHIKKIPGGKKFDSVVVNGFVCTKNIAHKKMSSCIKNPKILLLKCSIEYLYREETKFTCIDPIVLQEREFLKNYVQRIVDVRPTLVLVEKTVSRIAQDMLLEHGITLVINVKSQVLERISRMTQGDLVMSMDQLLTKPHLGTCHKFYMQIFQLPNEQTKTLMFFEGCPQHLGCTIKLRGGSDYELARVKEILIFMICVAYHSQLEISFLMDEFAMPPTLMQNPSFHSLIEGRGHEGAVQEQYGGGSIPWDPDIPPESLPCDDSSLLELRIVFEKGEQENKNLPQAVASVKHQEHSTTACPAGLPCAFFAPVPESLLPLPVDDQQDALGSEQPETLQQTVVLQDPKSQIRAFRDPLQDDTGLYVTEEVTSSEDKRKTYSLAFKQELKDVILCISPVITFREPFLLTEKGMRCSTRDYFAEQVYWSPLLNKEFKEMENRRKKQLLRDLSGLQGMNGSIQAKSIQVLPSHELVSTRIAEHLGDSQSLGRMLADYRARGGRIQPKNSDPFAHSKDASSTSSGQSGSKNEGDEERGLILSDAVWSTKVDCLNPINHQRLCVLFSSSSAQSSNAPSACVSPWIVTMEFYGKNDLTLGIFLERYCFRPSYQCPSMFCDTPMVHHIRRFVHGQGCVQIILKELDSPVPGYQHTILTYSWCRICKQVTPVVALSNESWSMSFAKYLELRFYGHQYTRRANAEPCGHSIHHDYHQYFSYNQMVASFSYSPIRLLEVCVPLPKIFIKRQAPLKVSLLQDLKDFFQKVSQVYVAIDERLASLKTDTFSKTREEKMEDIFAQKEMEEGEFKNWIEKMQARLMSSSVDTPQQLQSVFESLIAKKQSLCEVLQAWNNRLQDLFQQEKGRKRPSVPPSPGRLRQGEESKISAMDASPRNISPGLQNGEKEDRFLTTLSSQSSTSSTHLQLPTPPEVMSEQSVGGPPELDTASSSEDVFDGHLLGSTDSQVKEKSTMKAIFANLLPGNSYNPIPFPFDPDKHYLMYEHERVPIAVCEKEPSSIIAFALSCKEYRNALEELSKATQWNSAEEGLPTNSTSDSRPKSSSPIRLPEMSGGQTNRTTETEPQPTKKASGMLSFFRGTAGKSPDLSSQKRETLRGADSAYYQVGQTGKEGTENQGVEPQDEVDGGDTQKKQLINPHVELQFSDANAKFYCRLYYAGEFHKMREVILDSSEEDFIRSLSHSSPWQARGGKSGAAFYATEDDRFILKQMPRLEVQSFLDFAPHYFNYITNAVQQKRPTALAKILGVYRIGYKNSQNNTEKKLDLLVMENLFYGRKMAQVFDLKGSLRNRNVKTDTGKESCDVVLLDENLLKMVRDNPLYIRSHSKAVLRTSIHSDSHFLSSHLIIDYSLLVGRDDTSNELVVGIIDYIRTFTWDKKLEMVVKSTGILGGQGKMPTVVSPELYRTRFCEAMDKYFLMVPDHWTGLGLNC
# assay.info: PIKFYVE assay (luciferase ADP-Glo kinase assay, Promega)
# Assay type: biochemical
# condition.notes: Table 3
Reported IC50 by item:

Examples from the recorded data:
{"columns": ["molecule", "IC50"],
 "data": [
  ["Cc1cccc(-c2ccn(-c3cc(N4CCOCC4)nc([C@H](CO)OC(F)F)n3)n2)c1 (single isomer, unassigned) [Compound 310]", "10 to 100 nM"],
  ["Cc1cccc(-c2ccn(-c3cc(N4CCOCC4)nc(OCc4ccn(CCN(C)C)n4)n3)n2)c1 [Compound 238]", "< 3 nM"],
  ["CO[C@@H](CO)c1nc(N2CCOCC2)cc(-n2ccc(-c3cccc4c3OCO4)n2)n1 [Compound 267]", "10 to 100 nM"],
  ["Cc1cccc(-c2cn(C)n(-c3cc(N4CCOCC4)nc(OCCc4cnn(C)c4)n3)c2=O)c1 [Compound 247]", "100 to 5000 nM"],
  ["Cc1cccc(-c2ccn(-c3cc(N4CCOCC4)nc([C@@H]4CCCO4)n3)n2)c1 (single isomer, unassigned) [Compound 328]", "3 to 10 nM"],
  ["Cc1cccc(-c2cc([C@H](C)O)n(-c3cc(N4CCOCC4)nc(OCCc4cnn(C)c4)n3)n2)c1 (single isomer, unassigned) [Compound 313]", "< 3 nM"],
  ["CO[C@@H](CO)c1nc(N2CCOCC2)cc(-n2ccc(-c3cccc4ncsc34)n2)n1 [Compound 275]", "100 to 5000 nM"],
  ["COC(CO)(c1ccccc1)c1nc(N2CCOCC2)cc(-n2ccc(-c3cccc(C)c3)n2)n1 (centres unmarked) [Compound 228]", "< 3 nM"],
  ["C#CCCCOc1nc(N2CCOCC2)cc(-n2ccc(-c3cccc(C)c3)n2)n1 [Compound 108]", "3 to 10 nM"],
  ["N#CCC(O)c1nc(N2CCOCC2)cc(-n2ccc(-c3ccccc3)n2)n1 (centres unmarked) [Compound 181]", "10 to 100 nM"]
]}

// next item, IC50 requested
INPUT: Query: IC50; subject: CO[C@@H](CO)c1nc(N2CCOCC2)cc(-n2ccc(-c3cccc(C)c3C)n2)n1 [Compound 265]
OUTPUT: 100 to 5000 nM

* * *

Reported IC50 by item:
# system.under.test: PIKFYVE (Homo sapiens)
# assay.info: PIKFYVE assay (luciferase ADP-Glo kinase assay, Promega)
# Type: biochemical
# condition.notes: Table 2

Examples from the recorded data:
{"columns": ["molecule", "IC50"],
 "data": [
  ["CN(C)Cc1cc(-c2ccccc2)nn1-c1cc(N2CCOCC2)nc(OCCc2cnn(C)c2)n1 [Compound 75]", "5 to 100 nM"],
  ["COC(=O)c1ccn(-c2cc(N3CCOCC3)nc(OCCc3cnn(C)c3)n2)n1 [Compound 70]", "5 to 100 nM"],
  ["COc1nc(N2CCOCC2)cc(-n2ccc(-c3cccc(C)c3)n2)n1 [Compound 59]", "5 to 100 nM"],
  ["Cc1cccc(-c2ccn(-c3cc(N4CCOCC4)nc(OC[C@H](O)c4ccccc4)n3)n2)c1 (single isomer, unassigned) [Compound 58]", "< 5 nM"]
]}

INPUT: Query: IC50; subject: Cn1cc(CCOc2nc(N3CCOCC3)cc(-n3ccc(C(=O)Nc4ccccc4)n3)n2)cn1 [Compound 64]
OUTPUT: < 5 nM

INPUT: Query: IC50; subject: COCC(O)c1nc(N2CCOCC2)cc(-n2ccc(-c3cccc(C)c3)n2)n1 (stereo not drawn) [Compound 49]
OUTPUT: 5 to 100 nM

INPUT: Query: IC50; subject: Cc1cccc(-c2ccn(-c3cc(N4CCOCC4)nc(N4CCCC4=O)n3)n2)c1 [Compound 61]
OUTPUT: 5 to 100 nM

INPUT: Query: IC50; subject: CC(=O)Nc1nc(N2CCOCC2)cc(-n2ccc(-c3cccc(C)c3)n2)n1 [Compound 66]
OUTPUT: < 5 nM

INPUT: Query: IC50; subject: Cc1cccc(-c2ccn(-c3cc(N4CCOCC4)nc(C(O)CC#N)n3)n2)c1 (stereo not drawn) [Compound 76]
OUTPUT: < 5 nM

INPUT: Query: IC50; subject: CC(C)(C)c1ccn(-c2cc(N3CCOCC3)nc(OCC(O)CO)n2)n1 (stereo not drawn) [Compound 51]
OUTPUT: 1000 to 10000 nM

INPUT: Query: IC50; subject: Cn1cc(CCOc2nc(N3CCOCC3)cc(-n3ccc(-c4cccnc4)n3)n2)cn1 [Compound 71]
OUTPUT: < 5 nM

INPUT: Query: IC50; subject: Cc1cccc(-c2ccn(-c3cc(N4CCOCC4)nc(OCC4(C)COC4)n3)n2)c1 [Compound 67]
OUTPUT: < 5 nM

INPUT: Query: IC50; subject: COCc1nc(N2CCOCC2)cc(-n2ccc(-c3ccccc3)n2)n1 [Compound 69]
OUTPUT: 5 to 100 nM

INPUT: Query: IC50; subject: Cc1cccc(-c2ccn(-c3cc(N4CC[C@H]5OCC[C@H]54)nc(C(O)CO)n3)n2)c1 (stereo partly drawn) [Compound 48]
OUTPUT: 101 to 1000 nM
